assay: Determination of pharmacokinetic parameters in rats after single oral or intravenous administration; format: in vivo; details: Wistar, plasma, oral; rat, p.o. 1 mg/kg; calculated with a reference AUC after iv administration of solutions at 1 mg/kg; read-out: F (bioavailability)
# bioavailability listing for each entry below
Outcome measure: bioavailability (%)

molecule="O=C(NC1CCNCC1)[C@H]1[C@H](C(=O)NCc2ccc(Br)cc2F)[C@@H]2CC[C@H]1C21CC1 [Reference Example 2, reference compound]" outcome_measure=bioavailability result_units=% numeric_result=0.3
molecule="O=C(N[C@@H]1CCNC[C@H]1F)[C@H]1[C@H](C(=O)NCc2ccc(Br)cc2F)[C@@H]2CC[C@H]1C21CC1 (single isomer, unassigned; diastereoisomer 2)" outcome_measure=bioavailability result_units=% numeric_result=12

###

# AUC listing for each entry below
assay: Determination of pharmacokinetic parameters in rats after single oral or intravenous administration; format: in vivo; details: Wistar, po; rat, p.o. 1 mg/kg, plasma; read-out: AUC (area under curve after p.o. administration)
Outcome measure: AUC (ng·h/mL)

molecule="O=C(NC1CCNCC1)[C@H]1[C@H](C(=O)NCc2ccc(Br)cc2F)[C@@H]2CC[C@H]1C21CC1 [Reference Example 2, reference compound]" outcome_measure=AUC numeric_result=6.34
molecule="O=C(N[C@@H]1CCNC[C@H]1F)[C@H]1[C@H](C(=O)NCc2ccc(Br)cc2F)[C@@H]2CC[C@H]1C21CC1 (single isomer, unassigned; diastereoisomer 2)" outcome_measure=AUC numeric_result=49.9

###

molecular target: human ALX receptor (Homo sapiens, UniProt P25090); construct: expressed in transfected cells; host or cells: HEK293 (HEK293-hALXR-Gα16); test: Intracellular calcium measurements (FLIPR), ALX receptor agonistic activity; assay type: cell-based; details: HEK293-hALXR-Gα16 cells; values normalized to WKYMVm 10 nM; read-out: EC50 (agonistic activity with respect to the ALX receptor)
Sequence (P25090 whole entry): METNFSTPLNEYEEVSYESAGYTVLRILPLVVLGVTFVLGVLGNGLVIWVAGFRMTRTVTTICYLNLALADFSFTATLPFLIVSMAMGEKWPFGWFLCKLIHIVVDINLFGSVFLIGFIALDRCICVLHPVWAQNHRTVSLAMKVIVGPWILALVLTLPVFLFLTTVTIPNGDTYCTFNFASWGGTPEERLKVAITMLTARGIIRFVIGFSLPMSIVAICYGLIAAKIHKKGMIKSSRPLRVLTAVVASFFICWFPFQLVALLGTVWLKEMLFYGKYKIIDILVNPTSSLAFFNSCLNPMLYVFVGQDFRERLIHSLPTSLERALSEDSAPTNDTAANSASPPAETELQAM
Outcome measure: EC50 (nM)

molecule="O=C(N[C@@H]1CCNC[C@H]1F)[C@H]1[C@H](C(=O)NCc2ccc(Br)cc2F)[C@@H]2CC[C@H]1C21CC1 (single isomer, unassigned; diastereoisomer 2) [Example 3]" numeric_result=2
molecule="O=C(N[C@H]1CCNC[C@H]1F)[C@H]1[C@H](C(=O)NCc2ccc(Br)cc2F)[C@@H]2CC[C@H]1C21CC1 (mixture of isomers)" numeric_result=12.7
molecule="O=C(N[C@@H]1CCNC[C@H]1F)[C@H]1[C@H](C(=O)NCc2ccc(Br)cc2F)[C@@H]2CC[C@H]1C21CC1 (single isomer, unassigned; diastereoisomer 1) [Example 2]" numeric_result=1.9
molecule="O=C(NC1CCNCC1(F)F)[C@H]1[C@H](C(=O)NCc2ccc(Br)cc2F)[C@@H]2CC[C@H]1C21CC1 (stereo partly drawn)" numeric_result=41
molecule="O=C(N[C@@H]1CNC[C@@H]1F)[C@H]1[C@H](C(=O)NCc2ccc(Br)cc2F)[C@@H]2CC[C@H]1C21CC1 (mixture of isomers)" numeric_result=300
molecule="O=C(N[C@@H]1CNC[C@H]1F)[C@H]1[C@H](C(=O)NCc2ccc(Br)cc2F)[C@@H]2CC[C@H]1C21CC1 (mixture of isomers)" numeric_result=4.5
